Target: T1, rat α-CGRP (1-37) (rat, C-terminal amide; N-terminal biotin when captured on the SA chip)
T1 construct: also called rat α (1-37); α-rat
T1 peptide: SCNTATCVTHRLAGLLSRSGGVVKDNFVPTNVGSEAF
Experiment: Biacore, 37°C, Fab over CGRP on SA chip

{"columns": ["BINDER", "koff / s⁻¹"],
 "data": [
  ["G1 variant M54 Fab (Fab, V domains shown, Fab; constant domains as m1) VH: EVQLVESGGGLVQPGGSLRLSCAASGFTFSNYWISWVRQAPGKGLEWVAEIRSKSDNPATHYAEAVKGRFTISRDNAKNSLYLQMNSLRAEDTAVYYCTVYFDYGLAIQNYWGQGTLVTVSS VL: EIVLTQSPATLSLSPGERATLSCKASKNVATYVSWYQQKPGQAPRLLIYAASNRYLGIPARFSGSGSGTDFTLTISSLEPEDFAVYYCSQSYNYPYTFGQGTKLEIK", 0.00216],
  ["G1 variant M2 Fab (Fab, V domains shown, Fab; constant domains as m1) VH: EVQLVESGGGLVQPGGSLRLSCAASGFTFSNYWISWVRQAPGKGLEWVAEIRSESDASATHYAEAVKGRFTISRDNAKNSLYLQMNSLRAEDTAVYYCARYFDYGLAIQNYWGQGTLVTVSS VL: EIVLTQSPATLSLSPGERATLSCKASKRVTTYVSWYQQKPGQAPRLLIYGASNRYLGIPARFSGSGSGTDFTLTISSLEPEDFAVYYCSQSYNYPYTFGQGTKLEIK", 0.0026],
  ["G1 variant M68 Fab (Fab, V domains shown, Fab; constant domains as m1; printed L561 read as L56I) VH: EVQLVESGGGLVQPGGSLRLSCAASGFTFSNYWISWVRQAPGKGLEWVAEIRSKSDNDATHYADAVKGRFTISRDNAKNSLYLQMNSLRAEDTAVYYCTVYFDYGLAIQNYWGQGTLVTVSS VL: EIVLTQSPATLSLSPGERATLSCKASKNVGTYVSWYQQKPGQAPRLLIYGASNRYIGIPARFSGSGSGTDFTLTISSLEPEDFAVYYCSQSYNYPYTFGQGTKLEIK", 0.00676]
]}
